target: Nuclear receptor subfamily 1 group I member 3 (Homo sapiens); assay: qHTS assay to identify small molecule agonists of the constitutive androstane receptor (CAR) signaling pathway (AID 1224839); conditions: HepG2 hCAR CYP2B6-luciferase, agonist mode, 24 h; series mostly up to 92.4 µM; also: nearly all actives have a fitted effect of over 15% in size;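 as to activation: HepG2 cells stably carrying human CAR and a CYP2B6 luciferase reporter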
Records with an inconclusive call do not appear. The source made the active and inactive calls. Calls follow the shape of the dose curve; as a rule, active = well fitted activation curve with a large enough effect in the repeat runs; inconclusive = weak or mixed curves; inactive = no such curve, though single readings can be large or run the other way.
Bench note: report the call from active, inactive

Please review the following examples before continuing.
> print(dat)
                                   compound  assigned.label
1    CC(C)CCCCCCCOP(=O)(Oc1ccccc1)Oc1ccccc1          active
2  CC1(C)CC/C(=C/c2ccc(Cl)cc2)C1(O)Cn1cncn1 (centres undefined)        inactive
3  CC(C)(C)c1cc([N+](=O)[O-])cc(C(C)(C)C)c1O          active

Q: Please let me know the test result on file for Fc1ccc(Oc2ccnc3cc(Cl)cc(Cl)c23)cc1 .
A: active

----------
assay: qHTS RealTime-Glo MT Cell Viability Assay in HepG2 cells - 24 hour (AID 1224867); conditions: RealTime-Glo luminescence; series mostly up to 76.8 µM; also: nearly all actives have a fitted effect of over 50% in size
Inconclusive results are not listed. The source made the active and inactive calls. Calls come from the whole dose curve; as a rule, active = well fitted cell-killing curve with a large enough effect in the repeat runs; inconclusive = weak or mixed curves; inactive = flat fitted curve, though single readings scatter.
Bench note: report the call from active, inactive

> print(dat)
                                   molecule  assigned.label
1  Cc1cc(C)cc(OP(=O)(Oc2cc(C)cc(C)c2)Oc2cc(C)cc(C)c2)c1        inactive
2                               CCc1ccccc1C        inactive
3  O=C(O)C1C2CCC(O2)C1C(=O)O (configuration not stated)        inactive
4    COCC(=O)N(c1c(C)cccc1C)[C@H](C)C(=O)OC        inactive
5  CC1(C)C(/C=C(\Cl)C(F)(F)F)C1C(=O)OC(C#N)c1cccc(Oc2ccccc2)c1 (configuration not stated)        inactive

Q: Please let me know the test result on file for CCOP(=S)(OCC)SCS(=O)(=O)C(C)(C)C .
A: inactive

Q: Please let me know the test result on file for [CH3][Hg][Cl] .
A: active

----------
experiment: qHTS assay to identify small molecule antagonists of the estrogen related receptor (ERR) signaling pathway from Tox21 library (AID 1224848); conditions: ERR reporter cell line, luciferase antagonist mode, 18 h; series mostly up to 92.4 µM; also: nearly all actives have a fitted effect of over 50% in size
Results filed as inconclusive are left out. Active and inactive are the calls of the source. The call rests on the fitted dose curve; in most records, active means well fitted inhibition curve with a large enough effect in the repeat runs; inconclusive means weak or mixed curves; inactive means no such curve, though single readings can be large or run the other way.
Bench note: report the call from true (active), false (inactive)

Please review the following examples before continuing.
> print(dat)
                                   compound  assigned.label
1                     O=C1C=CC(=O)c2ccccc21            true
2  CC1CCC(C(C)C)C(OC(=O)c2ccccc2N)C1 (centres undefined)            true
3  FC(F)(F)c1cccc(C2=CCN(CCc3ccc4ccccc4c3)CC2)c1           false

Now take the following compound into account.
Q: Please let me know the test result on file for O=C1c2ccccc2C(=O)C1C(=O)C(c1ccccc1)c1ccc(Cl)cc1 (centres undefined) .
A: true

----------
molecular target: Nuclear receptor subfamily 1 group I member 2 (Homo sapiens) (UniProt O75469); assay: Human pregnane X receptor (PXR) small molecule agonists, qHTS assay (AID 1346982); conditions: PXR-Luc HepG2, CYP3A4 luciferase reporter, 24 h; series mostly up to 92.4 µM; also: nearly all actives have a fitted effect of over 35% in size; also: potency is read from the fitted curve at half-maximal effect
Sequence (O75469 whole entry, looked up): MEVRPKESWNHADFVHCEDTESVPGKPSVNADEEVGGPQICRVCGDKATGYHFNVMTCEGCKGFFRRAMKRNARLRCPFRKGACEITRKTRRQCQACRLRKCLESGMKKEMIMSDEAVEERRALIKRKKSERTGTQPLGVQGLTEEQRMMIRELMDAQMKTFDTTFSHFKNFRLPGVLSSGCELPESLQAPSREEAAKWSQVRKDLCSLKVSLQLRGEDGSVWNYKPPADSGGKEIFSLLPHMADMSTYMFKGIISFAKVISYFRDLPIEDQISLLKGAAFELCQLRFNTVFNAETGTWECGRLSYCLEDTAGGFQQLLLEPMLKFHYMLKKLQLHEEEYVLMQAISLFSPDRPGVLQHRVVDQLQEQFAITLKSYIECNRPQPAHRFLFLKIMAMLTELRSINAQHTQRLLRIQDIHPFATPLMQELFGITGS
Results filed as inconclusive are left out. Active and inactive are the calls of the source. Calls follow the shape of the dose curve; as a rule, active = well fitted activation curve with a large enough effect in the repeat runs; inconclusive = weak or mixed curves; inactive = no such curve, though single readings can be large or run the other way.
Measured Endpoint: Potency

Field: example entries. Status: answers known.
> print(dat)
                                    molecule  measured.endpoint            result
 1                O=[N+]([O-])c1cc(Cl)ccc1Cl            Potency          inactive
 2                       O=C(CBr)c1ccc(O)cc1            Potency          inactive
 3              S=C(SSC(=S)N1CCCCC1)N1CCCCC1            Potency  9.44 µM (active)
 4                             N#Cc1ccccc1Cl            Potency          inactive
 5  CCOC(=O)C1(c2ccccc2)CCN(CCC(C#N)(c2ccccc2)c2ccccc2)CC1            Potency  3.35 µM (active)
 6  c1ccc2c(c1)OCC(C1=NCCN1)O2 (configuration not stated)            Potency  11.9 µM (active)
 7  C=CCC1=C(C)C(OC(=O)C2C(C=C(C)C)C2(C)C)CC1=O (configuration not stated)            Potency  10.3 µM (active)
 8  CC(=[OH+])/C=C(/C)[O-].CC(=[OH+])/C=C(\C)[O-].CC(=[OH+])/C=C(\C)[O-].[Al]            Potency          inactive
 9  C[C@]12CC[C@@H]3c4ccc(OC(=O)N(CCCl)CCCl)cc4CC[C@H]3[C@@H]1CC[C@@H]2O            Potency          inactive
10            COP(=S)(OC)Oc1cc(Cl)c(Br)cc1Cl            Potency  12.2 µM (active)

Required: Potency, one value per molecule below.
1. CCCCCCCCCCCCCCC(Br)C(=O)O (configuration not stated)
2. N#CNC#N

A:
1: inactive; 2: inactive
